Test system: SN12C renal
Experiment: NCI tumour cell line growth inhibition, 48 h
Measured TGI of individual entries

Below: 6 compounds and their reported TGI.
C=C(C)c1ccccc1 (tested in a mixture with another compound) | > 100 µM
CCN(CC)c1ccc(C2=NN(C(C)=O)C(c3cc(OC)c(OC)c(OC)c3)C2)cc1 (stereo not given) | 16.2 µM
CC[C@]1(O)CC2CN(CCCc3c([nH]c4ccccc34)[C@@](C(=O)OC)(c3cc4c(cc3OC)N(C)C3C45CCN4CC=C[C@](CC)(C45)C(OC(C)=O)[C@@]3(O)C(=O)OC)C2)C1 (stereo not given in full) | > 10 µM
O=C(/C=C/c1ccccc1F)c1ccc([N+](=O)[O-])cc1 | > 100 µM
N#CC12CC3=C(N=C1NC1=C(CCc4ccccc41)C2)c1ccccc1CC3 (stereo not given) | > 81.9 µM
C(=Nc1ccccc1C1SCCCS1)c1ccccc1 | > 100 µM

GET /value?item= O=c1[nH]nc(Cc2ccccc2)n1/N=C/c1ccc(/C=N/n2c(Cc3ccccc3)n[nH]c2=O)cc1 &field=TGI returns > 100 µM

GET /value?item= Cc1[nH]c(-c2ccccc2)c(O)c1C(=O)OC12CC3CC(CC(C3)C1)C2 &field=TGI returns 30.1 µM

GET /value?item= COc1cc(C(=O)N2CCN(c3ccccn3)CC2)c(N)cc1OCc1ccccc1 &field=TGI returns > 100 µM

GET /value?item= C[O+]=c1cccc2ssnc1-2 &field=TGI returns > 100 µM

====

Measured TGI of individual entries
Tested on: SK-OV-3 ovarian
Assay: NCI tumour cell line growth inhibition, 48 h

Below: 6 molecules and their reported TGI.
CC=C(CBr)CCC(Br)C(C)(C)Cl (mixture of isomers) | > 10 µM
COc1oc(C(=O)NC2CCCCC2)c(-c2ccc(Cl)cc2)c1S(=O)(=O)c1ccccc1 | > 100 µM
C=C(C)c1ccccc1 (tested in a mixture with another compound) | > 100 µM
O=C(Cc1csc2nc(-c3ccc(Br)cc3)cn12)N/N=C/c1ccccc1 | > 100 µM
Cc1ccc(/C=C2\COc3ccc(O)c(O)c3C2=O)cc1 | 35.1 µM
OC[C@@H]1CC#C/C=C\C#CC[C@@H]1CO | > 100 µM

Continue with the next molecule.
Value sought: TGI, system SK-OV-3 ovarian, item Nc1nc(N)c(-c2cccc(C(F)(F)F)c2)c(Cc2cccc(C(F)(F)F)c2)n1 . Result: 28.1 µM

====

Test system: T-47D breast
Assay: NCI tumour cell line growth inhibition, 48 h
Measured TGI of individual entries

Below: 2 molecules and their reported TGI.
Cc1ccc(C2C(C(=O)C(C)(C)C)N2S(=O)(=O)c2ccc(C)cc2)cc1 (stereo unspecified) | 52 µM
COc1ccc2c(c1)OCC1Cc3cc4c(cc3OC21)OCO4 (stereo unspecified) | > 100 µM

Value sought: TGI, system T-47D breast, item C=C(C)c1ccccc1 (tested in a mixture with another compound) . Result: > 100 µM

Value sought: TGI, system T-47D breast, item COc1cc2c(cc1OC)[C@@H]1C(=O)c3cc4c(cc3[C@@H]1N(CCN(C)C)C2=O)OCO4 . Result: 31.3 µM

Value sought: TGI, system T-47D breast, item C[C@H](NC1=CC(=O)C(N[C@@H](C)[C@H](O)c2ccccc2)=CC1=O)[C@H](O)c1ccccc1 . Result: > 100 µM

Value sought: TGI, system T-47D breast, item CC(C)(C)OC/C=C(\Br)CO . Result: > 100 µM
